assay: BSK_hDFCGF_SRB: Viability Assessment in the BioMAP Diversity Plus: hDFCGF Assay (AID 2283061); settings: primary human foreskin fibroblasts;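 further: cells exposed to compound for 24 h before the read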
Calls of active or inactive are those of the source. How the source made its calls: active means hit-call score of the fitted dose curve at least 0.9, where 1 is the maximum; inactive means score below 0.9.
Parameter call: string, one of true (1) (active), false (0) (inactive)

Record excerpt, results attached:
CC(C)(C)CC(C)(C)c1ccc(OCCOCC[N+](C)(C)Cc2ccccc2)cc1
true (1)
CC(=O)Nc1ccc(C(=O)CCl)cc1
true (1)
C=CC(C)(O)CCC=C(C)C (stereo unspecified)
false (0)
COc1cc(Cl)c(OC)cc1N
false (0)
CC=Cc1ccc(OCC)c(O)c1
false (0)
CCCCCCCCCCCCCCCC(=O)OC/C=C(C)/C=C/C=C(C)/C=C/C1=C(C)CCCC1(C)C
false (0)

Task item: What outcome does the record of this test show for C=C(C)C(=O)OCCOCCOCCOCCOC(=O)C(=C)C ?
Reply: false (0)

Task item: What outcome does the record of this test show for O=C1OC2(c3ccccc31)c1ccc(O)c(Br)c1Oc1c2ccc(O)c1Br ?
Reply: false (0)

Task item: What outcome does the record of this test show for Clc1cc(Cl)c(-c2c(Cl)c(Cl)cc(Cl)c2Cl)cc1Cl ?
Reply: true (1)

Task item: What outcome does the record of this test show for CS(=O)(=O)c1ccc(C2=C(c3ccccc3)C(=O)OC2)cc1 ?
Reply: false (0)

Task item: What outcome does the record of this test show for O=C(Nc1ccc2c(O)c(N=Nc3ccc(N=Nc4ccc(S(=O)(=O)O)cc4)cc3)c(S(=O)(=O)O)cc2c1)c1ccccc1 ?
Reply: true (1)
